- EXPERIMENTAL TARGET: Bifunctional dihydrofolate reductase-thymidylate synthase (Plasmodium falciparum K1) (UniProt P13922)
- Sequence (P13922 whole entry, looked up): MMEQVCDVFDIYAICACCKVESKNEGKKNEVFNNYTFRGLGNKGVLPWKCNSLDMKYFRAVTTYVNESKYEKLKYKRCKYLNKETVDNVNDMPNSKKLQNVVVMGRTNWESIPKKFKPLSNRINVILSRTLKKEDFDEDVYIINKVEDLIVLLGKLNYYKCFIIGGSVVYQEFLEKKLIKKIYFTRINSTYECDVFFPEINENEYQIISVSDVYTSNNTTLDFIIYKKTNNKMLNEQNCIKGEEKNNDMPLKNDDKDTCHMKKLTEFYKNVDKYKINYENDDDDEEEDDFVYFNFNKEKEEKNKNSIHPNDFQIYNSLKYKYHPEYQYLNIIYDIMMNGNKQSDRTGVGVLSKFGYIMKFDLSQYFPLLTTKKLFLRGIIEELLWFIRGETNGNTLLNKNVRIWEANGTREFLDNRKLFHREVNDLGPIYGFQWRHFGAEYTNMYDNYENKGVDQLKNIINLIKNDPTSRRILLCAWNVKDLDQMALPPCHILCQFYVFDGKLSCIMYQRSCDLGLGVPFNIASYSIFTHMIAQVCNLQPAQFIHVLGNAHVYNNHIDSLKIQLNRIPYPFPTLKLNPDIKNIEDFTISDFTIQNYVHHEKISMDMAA
- PROCEDURE SUMMARY: Evaluated for activity of relative to Cycloguanil
Provide the recorded Relative activity for the entries that follow.
One number for each entry.

>  <MOLECULE>
NC1=NC(c2ccccc2)N(c2cccc(Cl)c2)C(N)=N1 (stereo unspecified)

>  <Relative activity>
7.8

$$$$
>  <MOLECULE>
CC1(C)N=C(N)N=C(N)N1c1ccccc1

>  <Relative activity>
13

$$$$
>  <MOLECULE>
CCCC1N=C(N)N=C(N)N1c1ccc(Br)cc1 (stereo unspecified)

>  <Relative activity>
1.7

$$$$

I'm hoping you can list Relative activity for every molecule here, please.
1. CC1(C)N=C(N)N=C(N)N1c1ccc(F)cc1
2. CCCC1N=C(N)N=C(N)N1c1ccc(C)cc1 (stereo unspecified)
3. CC1(C)N=C(N)N=C(N)N1c1ccc(Br)cc1

Key:
1. 3
2. 9.1
3. 0.7

List the reported Relative activity of each molecule below.
1. CC(C)C1N=C(N)N=C(N)N1c1ccc(Br)cc1 (stereo unspecified)
2. CCC1N=C(N)N=C(N)N1c1ccc(Br)cc1 (stereo unspecified)
3. CCC1N=C(N)N=C(N)N1c1ccc(C)cc1 (stereo unspecified)

Key:
[20, 1.8, 3.9]

For each of the molecules below, note its Relative activity.
1. Cc1ccc(N2C(N)=NC(N)=NC2c2ccccc2)cc1 (stereo unspecified)
2. NC1=NCN(c2ccc(F)cc2)C(N)=N1

Key:
1. 5.1
2. 180

Value source: ChEMBL document CHEMBL1133696
